Target: T1, soluble cynomolgus GPNMB (recombinant extracellular domain) (cynomolgus, UniProt Q14956 23-499 (human entry), limits assumed)
T1 chain: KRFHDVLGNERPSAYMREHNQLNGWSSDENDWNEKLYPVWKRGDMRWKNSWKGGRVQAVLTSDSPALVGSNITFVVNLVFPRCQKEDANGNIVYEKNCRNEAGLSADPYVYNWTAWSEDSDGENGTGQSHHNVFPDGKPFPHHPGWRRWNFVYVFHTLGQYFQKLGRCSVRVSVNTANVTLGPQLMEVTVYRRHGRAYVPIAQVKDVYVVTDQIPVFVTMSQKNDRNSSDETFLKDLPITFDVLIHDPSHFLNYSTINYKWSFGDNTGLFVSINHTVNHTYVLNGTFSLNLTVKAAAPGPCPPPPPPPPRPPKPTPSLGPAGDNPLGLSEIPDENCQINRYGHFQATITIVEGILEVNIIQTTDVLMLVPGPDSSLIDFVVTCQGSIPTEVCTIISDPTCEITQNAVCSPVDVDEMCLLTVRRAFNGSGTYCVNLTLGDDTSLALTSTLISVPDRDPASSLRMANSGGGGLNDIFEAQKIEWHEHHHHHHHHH
Test: SPR Carterra, Ab immobilized
Readout: pKd
Scale: pKd equals -log10([C]), with [C] in mol/L.

{"columns": ["Binder", "pKd"],
 "data": [
  ["anti-GPNMB antibody GPN-34 (antibody, human IgG1, V domains shown, chimeric) VH: EVKLVESGGGLVQPGRSLKLSCAASGFNFYDYWMGWVRQAPGKGLEWIGEINKDSRTINYTPFLKDRFTISRDNAQNTLYLQMSKLGSEDTAIYYCAREGRVPFDYWGQGVMVTVSS VL: DIQMTQSPSSMSVSLGDTVTIPCRASQDVGSYVNWFQQKPGKSPRHMIYRATNLADGVPSRFSGSRSGADYSLTISSLESEDVADYHCQQYAEYPLTFGSGTKLEIK", 9.40]
]}

Okay, next one:
Ask: Annotate the binder anti-GPNMB antibody GPN-07 (antibody, human IgG1, V domains shown, chimeric) VH: QVQLQQSGAEQVKPGASVKLSCKASGYTFTSYYMYWVKQRPGQGLEWIGEINPSNGGTYFNEKFKSKATLTVDKSSSTAYMHLSSLTSEDSAVYYCTRGGTYYAYWGQGTLVTVSA VL: DIQMTQSPSSLSASLGERVSLTCRASQEMSGHLSWLQQKPDGTIKRLIYAASTLDSGVPKRFSGSRSGSDYSLTISSLESEDFADYYCLQYASYPYTFGGGTKLEIK with its measured pKd.
Result: 7.95
